tested.target: FXR LBD (Homo sapiens, UniProt Q96RI1)
Construct: purchased ThermoFisher Scientific PV4833
Sequence (Q96RI1 262-486 limits assumed): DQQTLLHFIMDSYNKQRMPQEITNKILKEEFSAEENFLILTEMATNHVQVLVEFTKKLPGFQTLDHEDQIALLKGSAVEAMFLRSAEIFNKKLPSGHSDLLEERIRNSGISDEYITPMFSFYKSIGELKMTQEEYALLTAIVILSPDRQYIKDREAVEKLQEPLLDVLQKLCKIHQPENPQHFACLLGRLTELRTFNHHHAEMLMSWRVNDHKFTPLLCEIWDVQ
assay.info: LanthaScreen TR-FRET FXR Coactivator Assay, antagonistic mode (SRC-2 peptide recruitment)
Type: biochemical
particulars: GW4064 1 µM; read-out: IC50, inhibition of GW4064-promoted interaction of SRC-2 and FXR
Consider the following molecules and their measured IC50 readings.
The reply should be a number in µM, with the unit left off.

Past entries and their recorded results:
Response field IC50 (FXR LBD (Homo sapiens, UniProt Q96RI1)) for item CCC[C@@]1(O)C[C@@H]2C[C@H](O)CC[C@]2(C)C2CC[C@@]3(C)C(CC[C@@H]3[C@H](C)CCC(=O)O)C21 (stereo partly drawn) : 13.8

For the molecule C/C=C1\C[C@@H]2C[C@H](O)CC[C@]2(C)[C@H]2CC[C@]3(C)[C@@H]([C@H](C)CCC(=O)O)CC[C@H]3[C@H]12 , the measured IC50 on FXR LBD (Homo sapiens, UniProt Q96RI1) was 6.6

Next:
IC50 value, target or system FXR LBD (Homo sapiens, UniProt Q96RI1), for CC(CCC(=O)O)C1CCC2C3C(CCC12C)C1(C)CCC(O)CC1CC3(O)C(C)C (stereo not drawn) : 35.2

---

IC50 overview
Tested on: Huh7
assay.info: MTS viability assay
Assay type: cell-based, human
particulars: Homo sapiens, Huh-7; Huh7, 24 h, MTS; read-out: IC50 (µM), cell viability

Considering CC(CCC(=O)O)C1CCC2C3C(CCC12C)C1(C)CCC(O)CC1CC3(O)C(C)C (stereo not shown) , its IC50 with Huh7 was recorded as > 100 µM

Form field, IC50 with Huh7, item CC[C@@]1(O)C[C@@H]2C[C@H](O)CC[C@]2(C)C2CC[C@@]3(C)C(CC[C@@H]3[C@H](C)CCC(=O)O)C21 (stereo partly shown) : > 200 µM

The value of IC50 recorded for C/C=C1\C[C@@H]2C[C@H](O)CC[C@]2(C)[C@H]2CC[C@]3(C)[C@@H]([C@H](C)CCC(=O)O)CC[C@H]3[C@H]12 when tested on Huh7 reads > 200 µM

Record for C=C[C@@]1(O)C[C@@H]2C[C@H](O)CC[C@]2(C)C2CC[C@@]3(C)C(CC[C@@H]3[C@H](C)CCC(=O)O)C21 (stereo partly shown) under target or system Huh7: IC50 reported as > 100 µM

---

assay.info: MTS viability assay
Assay type: cell-based, human
particulars: human, Huh7 cells; Huh7, 24 h, vehicle = 100%
result.type: viability at 24 h, 10 µM
A complete answer gives the number followed by the unit.

Solved entries:
Notebook: C#C[C@@]1(O)C[C@@H]2C[C@H](O)CC[C@]2(C)C2CC[C@@]3(C)C(CC[C@@H]3[C@H](C)CCC(=O)O)C21 (stereo partly shown) , viability at 24 h, 10 µM read as 103%

Record summary for C[C@H](CCC(=O)O)[C@H]1CCC2C3C(CC[C@@]21C)[C@@]1(C)CC[C@@H](O)C[C@H]1C[C@]3(O)C1CC1 (stereo partly shown) : reported viability at 24 h, 10 µM = 97.9%

Lab note: measured viability at 24 h, 10 µM of C[C@H](CCC(=O)O)[C@H]1CCC2C3C(CC[C@@]21C)[C@@]1(C)CC[C@@H](O)C[C@H]1C[C@@]3(C)O (stereo partly shown) was 106%

Noted for C/C=C1\C[C@@H]2C[C@H](O)CC[C@]2(C)[C@H]2CC[C@]3(C)[C@@H]([C@H](C)CCC(=O)O)CC[C@H]3[C@H]12 : its viability at 24 h, 10 µM reads 111%

Entry C=CC[C@@]1(O)C[C@@H]2C[C@H](O)CC[C@]2(C)C2CC[C@@]3(C)C(CC[C@@H]3[C@H](C)CCC(=O)O)C21 (stereo partly shown) — recorded viability at 24 h, 10 µM = 93.5%

viability at 24 h, 10 µM for CCCCCCCCC[C@@]1(O)C[C@@H]2C[C@H](O)CC[C@]2(C)C2CC[C@@]3(C)C(CC[C@@H]3[C@H](C)CCC(=O)O)C21 (stereo partly shown) is 118%

Shift focus to the following entry.
Recorded result, C=C[C@@]1(O)C[C@@H]2C[C@H](O)CC[C@]2(C)C2CC[C@@]3(C)C(CC[C@@H]3[C@H](C)CCC(=O)O)C21 (stereo partly shown) , viability at 24 h, 10 µM: 117%

---

tested.target: FXR LBD (Homo sapiens, UniProt Q96RI1)
Construct: purchased ThermoFisher Scientific PV4833
assay.info: LanthaScreen TR-FRET FXR Coactivator Assay, antagonistic mode (SRC-2 peptide recruitment)
Format: biochemical
particulars: OCA 1 µM; read-out: IC50, inhibition of OCA-induced recruitment of SRC-2 to FXR LBD
Below, each of the compounds is paired with its reported pIC50 value.
Friendly reminder that pIC50 comes from taking -log10 of the concentration in mol/L.

For orientation, consider the following solved cases.
FXR LBD (Homo sapiens, UniProt Q96RI1) pIC50 of CCC[C@@]1(O)C[C@@H]2C[C@H](O)CC[C@]2(C)C2CC[C@@]3(C)C(CC[C@@H]3[C@H](C)CCC(=O)O)C21 (stereo partly drawn) [2f] is 4.58

// returns pIC50 for C/C=C1\C[C@@H]2C[C@H](O)CC[C@]2(C)[C@H]2CC[C@]3(C)[C@@H]([C@H](C)CCC(=O)O)CC[C@H]3[C@H]12 [2a] with FXR LBD (Homo sapiens, UniProt Q96RI1); value = 4.74

For the next question, use this compound.
Reading of pIC50 for CC(CCC(=O)O)C1CCC2C3C(CCC12C)C1(C)CCC(O)CC1CC3(O)C(C)C (stereo not drawn) [2h] with FXR LBD (Homo sapiens, UniProt Q96RI1): 4.60

---

System: HepG2
assay.info: MTS viability assay
Assay type: cell-based, human
particulars: Homo sapiens; HepG2, 24 h, MTS; read-out: IC50 (µM), cell viability
result.type: IC50 (µM)
Report the figure in µM without appending any unit label.

The measured IC50 associated with C=CC[C@@]1(O)C[C@@H]2C[C@H](O)CC[C@]2(C)C2CC[C@@]3(C)C(CC[C@@H]3[C@H](C)CCC(=O)O)C21 (stereo partly shown) reads 162

Now look at this one.
Per the records, this compound ( C[C@H](CCC(=O)O)[C@H]1CCC2C3C(CC[C@@]21C)[C@@]1(C)CC[C@@H](O)C[C@H]1C[C@]3(O)C1CC1 (stereo partly shown) ) has IC50 equal to 178

---

assay.info: MTS viability assay
Assay type: cell-based, human
particulars: human, HepaRG cells, vehicle = 100%
Entries and their viability at 24 h, 10 µM
Note: unit % is implicit; provide only the numeric part.

Noted for C/C=C1\C[C@@H]2C[C@H](O)CC[C@]2(C)[C@H]2CC[C@]3(C)[C@@H]([C@H](C)CCC(=O)O)CC[C@H]3[C@H]12 : its viability at 24 h, 10 µM reads 119

What the record says about CC[C@@]1(O)C[C@@H]2C[C@H](O)CC[C@]2(C)C2CC[C@@]3(C)C(CC[C@@H]3[C@H](C)CCC(=O)O)C21 (stereo partly shown) : viability at 24 h, 10 µM is 117

viability at 24 h, 10 µM for C[C@H](CCC(=O)O)[C@H]1CCC2C3C(CC[C@@]21C)[C@@]1(C)CC[C@@H](O)C[C@H]1C[C@]3(O)C1CC1 (stereo partly shown) is 133

Continue with the next compound.
So for C=CCCC[C@@]1(O)C[C@@H]2C[C@H](O)CC[C@]2(C)C2CC[C@@]3(C)C(CC[C@@H]3[C@H](C)CCC(=O)O)C21 (stereo partly shown) , the logged viability at 24 h, 10 µM turned out to be 93.1

---

assay.info: MTS viability assay
Assay type: cell-based, murine
particulars: mouse, AML12 cells; AML12, 24 h, vehicle = 100%
result.type: viability at 24 h, 10 µM (%)
# output: bare number, implied unit %

Would you please look over these solved cases?
The molecule listed as C=CC[C@@]1(O)C[C@@H]2C[C@H](O)CC[C@]2(C)C2CC[C@@]3(C)C(CC[C@@H]3[C@H](C)CCC(=O)O)C21 (some centres unmarked) has a reported viability at 24 h, 10 µM of 109

Reported viability at 24 h, 10 µM for C[C@H](CCC(=O)O)[C@H]1CCC2C3C(CC[C@@]21C)[C@@]1(C)CC[C@@H](O)C[C@H]1C[C@]3(O)C1CC1 (some centres unmarked) was 108

Notebook: CCC[C@@]1(O)C[C@@H]2C[C@H](O)CC[C@]2(C)C2CC[C@@]3(C)C(CC[C@@H]3[C@H](C)CCC(=O)O)C21 (some centres unmarked) , viability at 24 h, 10 µM read as 81.2

Form: molecule = C=CCCC[C@@]1(O)C[C@@H]2C[C@H](O)CC[C@]2(C)C2CC[C@@]3(C)C(CC[C@@H]3[C@H](C)CCC(=O)O)C21 (some centres unmarked) ; viability at 24 h, 10 µM = 127

// sample C#C[C@@]1(O)C[C@@H]2C[C@H](O)CC[C@]2(C)C2CC[C@@]3(C)C(CC[C@@H]3[C@H](C)CCC(=O)O)C21 (some centres unmarked) , its viability at 24 h, 10 µM was 97.5

Please fill in: viability at 24 h, 10 µM reported for C[C@H](CCC(=O)O)[C@H]1CCC2C3C(CC[C@@]21C)[C@@]1(C)CC[C@@H](O)C[C@H]1C[C@@]3(C)O (some centres unmarked) = 108

Query CC(CCC(=O)O)C1CCC2C3C(CCC12C)C1(C)CCC(O)CC1CC3(O)C(C)C (centres unmarked) yields viability at 24 h, 10 µM of 94

Kindly note the recorded viability at 24 h, 10 µM for CC[C@@]1(O)C[C@@H]2C[C@H](O)CC[C@]2(C)C2CC[C@@]3(C)C(CC[C@@H]3[C@H](C)CCC(=O)O)C21 (some centres unmarked) , which is 105

Memo: C=C[C@@]1(O)C[C@@H]2C[C@H](O)CC[C@]2(C)C2CC[C@@]3(C)C(CC[C@@H]3[C@H](C)CCC(=O)O)C21 (some centres unmarked) , reported viability at 24 h, 10 µM: 106

Reported viability at 24 h, 10 µM for C/C=C1\C[C@@H]2C[C@H](O)CC[C@]2(C)[C@H]2CC[C@]3(C)[C@@H]([C@H](C)CCC(=O)O)CC[C@H]3[C@H]12 was 108

Consider the record given below.
Reported viability at 24 h, 10 µM of CCCCCCCCC[C@@]1(O)C[C@@H]2C[C@H](O)CC[C@]2(C)C2CC[C@@]3(C)C(CC[C@@H]3[C@H](C)CCC(=O)O)C21 (some centres unmarked) : 68

Cited source: paper PMC8414367
